FYI, the data here is from PubChem BioAssay (NCI).

tested on: U251 CNS; assay: NCI-60 one-dose screen, 48 h (100 = growth as untreated, 0 = no growth, -100 = all killed); conditions: 10 µM
About 83,000 compounds went through this panel and 20% of them were active in at least one assay; those are over-represented in the sample as a whole.
measuredAttribute: growth (%)
Use % as the unit, but write only the number.

Example entries and their recorded answers appear below.
# compound, measuredAttribute, val
rows = [
    ("O=C1Nc2cc(-c3ccc(NC(=O)c4cccs4)cc3)ccc2/C1=C/c1ccc[nH]1", "growth", 65.9),
    ("COc1cc2oc(-c3cccc(C(=O)Nc4ccc(Cl)cc4)c3)cc(=O)c2c(OCCNC(=O)CNC(=O)OC(C)(C)C)c1OC", "growth", 74.8),
    ("COc1ccc([C@H]2C(C(=O)c3ccc(Cl)cc3)C3(N[C@@H]2c2ccccc2)C(=O)Nc2ccc(Cl)cc23)cc1 (stereo partly drawn)", "growth", -33.9),
    ("CCCSc1nc(NC2CC2)c(C#N)c(-c2ccc(OC)cc2)n1", "growth", 87.4),
    ("O=C(CSc1nnc(-c2c[nH]c3ccccc23)n1-c1ccccc1)Nc1ccc(C(=O)/C=C/c2cccc([N+](=O)[O-])c2)cc1", "growth", 92.5),
]

# lookup: O/N=C(\CSc1nnc(-c2c[nH]c3ccccc23)n1-c1ccccc1)c1ccc(Cl)cc1 on U251 CNS, growth = 30.5

Bench note, U251 CNS: Cc1ccc(/C=C/C(=O)c2ccc(S(=O)(=O)NCCNc3nc(Nc4ccc(F)cc4)nc(N(C)C)n3)cc2)cc1 , growth reads -57.3

Lab note: compound C/C(=N\N=C\c1ccc(Cl)c([N+](=O)[O-])c1)c1ccc2c(c1)Nc1ccccc1S2 tested on U251 CNS; recorded growth was -35
